system: EKVX NSCLC; experiment: NCI tumour cell line growth inhibition, 48 h
Measured quantity: TGI

Use the examples below as a reference point.
Compound	Test result
Cc1ccc(S(=O)(=O)N2CCc3ccc(O)c4c3C2Cc2cc(Cl)ccc2-4)cc1 (stereo not given)	28.8 µM
COc1ccccc1Cn1nc(OC)c2cc([N+](=O)[O-])ccc21	> 73.6 µM

Exam item: State its TGI for this compound: O=C(CCc1cccc(O)c1)NCCc1ccc(O)cc1
Marked response: > 100 µM

---

system: SF-539 CNS; experiment: NCI tumour cell line growth inhibition, 48 h; in the data active means GI50 below about 0.43 µM; inactive means the rest
Reply using exactly one outcome from label 1 for active, label 0 for inactive

Worked set:
Molecule	Class assignment
CC(=O)N=c1ccc2nc3c(cc(N)c4ccccc43)oc-2c1	label 0
COC1=CC(c2ccc[nH]2)=N/C1=C\c1ccc[nH]1	label 1
COc1ccc(C2=NN(C(C)=O)C(c3cn(-c4ccccc4)nc3-c3ccc(Cl)cc3)C2)cc1 (stereo not given)	label 0

Exam item: Entry COc1ccc2c(c1)CCC1C2CC[C@]2(C)/C(=N/OC(=O)Cc3ccccc3)CCC12 (stereo not given in full) : call = ?
Marked response: label 0

Exam item: Hi team, can someone confirm the assay call for CCCCCCCC[N+](C)(CCCCCCCC)CCCCCCCC ?
Marked response: label 0

Values were extracted from PubChem BioAssay (NCI).
